# Tested on: NCI-H460
# assay_remarks: NCI tumour cell line growth inhibition, 48 h
Active and inactive are the calls of the source. No stated cut-off is given here; in the data, active = GI50 up to about 1.1 µM and inactive = higher.
observation_type: GI50

Ask: Return reported GI50 for target or system NCI-H460, item CSCCC(NCc1c(O)ccc2c(-c3ccccc3)cc(=O)oc12)C(=O)O (stereo not given) .
Result: > 100 µM (inactive)

Ask: Report GI50 from NCI-H460 testing of CCCC(=O)Nc1cc(/C=C/C(=O)N2CC(CCl)c3c2cc(O)c2[nH]cc(C)c32)n(C)c1 (stereo not given)
Result: < 2.5e-05 µM (active)

Ask: Param request: GI50 | system NCI-H460 | item CCCCCCCCCCC(=O)CC(=O)c1c(O)cccc1O
Result: 34.7 µM (inactive)

Ask: Quote NCI-H460 GI50 for entry COc1ccc(C(=O)O)c(Br)c1OCc1ccccc1 .
Result: > 100 µM (inactive)

Ask: Write down the reported GI50 (system: NCI-H460) of Cn1c(=O)c2c(nc3n(Cc4ccccc4)c(=O)c(NCCCBr)cn23)n(C)c1=O
Result: > 100 µM (inactive)

###

Exercise: state measured GI50 for each of the compounds provided.
# System: COLO 205
# assay_remarks: NCI tumour cell line growth inhibition, 48 h
The source made the active and inactive calls. Cut-off read from the data, not from the text of the source: active = GI50 up to about 1.1 µM and inactive = higher.

Ask: Quick one: give measured GI50 for O=C(C=P(c1ccccc1)(c1ccccc1)c1ccccc1)C12CC3CC(CC(C3)C1)C2
Result: 11.9 µM (inactive)

Ask: Quickly give me recorded GI50 for COc1cc2c(oc(=O)c3cc4cc([Si](C)(C)C)oc4c(OC)c32)c2cccc(O)c12
Result: > 100 µM (inactive)

Ask: Name the recorded GI50 of the compound listed here: Cc1ccc(-n2cc(-c3ccc(Cl)cc3)c3c(NNC(=S)NCc4ccccc4)ncnc32)cc1
Result: 10.7 µM (inactive)

Ask: Check the records and state GI50 for O=C(Nc1ccc(Br)cc1)c1c(-c2ccccc2)c2ccc(O)cc2oc1=O
Result: > 10 µM (inactive)

Ask: Fill in GI50 for record O=C(COc1ccc(OCC(=O)N2C(=O)CN(c3ccc(Cl)cc3)C2=S)cc1)N1C(=O)CN(c2ccc(Cl)cc2)C1=S
Result: 25.6 µM (inactive)

Ask: Kindly indicate its recorded GI50. Item: O=C(NCCCCCCNC(=O)n1cc(F)c(=O)[nH]c1=O)NCCCOCCOCCOCCOCCOCCOCCOCCOCCOCCOCCOCCOCCOCCOCCOCCOCCOCCOCCOCCOCCOCCCNC(=O)C(O)C(O)C(O)C(O)CO (stereo not drawn)
Result: 23.8 µM (inactive)

Ask: Provide GI50 value for the following compound: Brc1ccc(/N=C/C=C(\Nc2ccc(Br)cc2)C23CC4CC(CC(C4)C2)C3)cc1
Result: 9.62 µM (inactive)

Ask: Look up and state reported GI50 for C=CCC1CC(n2cc(C)c(=O)[nH]c2=O)OC1CO[Si](C)(C)C(C)(C)C (stereo not drawn)
Result: 13.5 µM (inactive)

Ask: State its GI50 for this compound: Cc1cccc(Cn2c3c(c4cc(O)ccc42)C(=O)c2ccccc2C3=O)c1
Result: > 78.2 µM (inactive)

Ask: Specify GI50 for Cc1ccnc(NS(=O)(=O)c2ccc(N=[N+]=[N-])cc2)n1 and stop.
Result: > 100 µM (inactive)

Ask: Look up and report measured GI50 for this entry: CC1=CC(/C=C(\C)CCCc2ccoc2)C2(OC(=O)C(C)=C2O)[C@H]2C1CC[C@@H]2C (stereo partly drawn)
Result: 21.9 µM (inactive)

Ask: Identify the reported GI50 for the following entry. Cc1cc(Cl)ccc1N1C(=O)C(=O)C(c2nc3ccccc3s2)/C(=N\NC(=O)c2ccccc2O)C1=O (stereo not drawn)
Result: > 100 µM (inactive)

Ask: Answer with the recorded GI50 of COC(=O)[C@@]12CCCC(=O)[C@@H]1[C@H]1CCC[C@H]12 only.
Result: > 100 µM (inactive)

Ask: Read the entry CCOC(=O)C/C(=N\c1cc(C)on1)N(CC)CC.[O-][Cl+3]([O-])([O-])O and write its reported GI50.
Result: > 100 µM (inactive)

Ask: Name the recorded GI50 of the compound listed here: Cc1cc(C)nc(NS(=O)(=O)c2ccc(NNc3c4ccccc4nc4c(C(=O)Nc5ccc(S(N)(=O)=O)cc5)cccc34)cc2)n1
Result: > 100 µM (inactive)

Ask: Report GI50, nothing else, for this compound: c1ccc(-c2nnc(CCCCCCCCc3nnc(-c4ccccc4)o3)o2)cc1
Result: > 100 µM (inactive)

Ask: Entry Cn1c(=O)oc2cc(C(O)CN3CCN(Cc4ccc5c(c4)OCO5)CC3)ccc21 (stereo not drawn) needs its GI50 filled in; supply it.
Result: > 100 µM (inactive)

Ask: Entry Cc1ccccc1SC(/C=C/NNC1=NN=C(c2ccccc2)C(c2ccccc2)N1)c1ccccc1 (stereo not drawn) needs its GI50 filled in; supply it.
Result: 36.4 µM (inactive)

###

# Tested on: OVCAR-8
# assay_remarks: NCI tumour cell line growth inhibition, 48 h
Calls of active or inactive are those of the source. Cut-off read from the data, not from the text of the source: active = GI50 up to about 1.1 µM and inactive = higher.
observation_type: GI50

Ask: Tell us which GI50 value is on record for C[C@@H](c1ccccc1)N1C[C@@H](c2ccc3c(c2)OCO3)[C@@H]2C(=O)CCC[C@@H]21
Result: > 100 µM (inactive)

Ask: Respond only with GI50 recorded for Nc1nc(Cl)c(Cl)c(NCC2(O)CCC2)n1
Result: 92.9 µM (inactive)

Ask: Please give the documented GI50 of N#Cc1c(NN)nc(NN)c(C#N)c1-c1ccccc1
Result: > 100 µM (inactive)

###

# System: RXF 393
# assay_remarks: NCI tumour cell line growth inhibition, 48 h
Activity calls are given as the source filed them. Cut-off read from the data, not from the text of the source: active = GI50 up to about 1.1 µM and inactive = higher.
Assign a class; possible classes are active, inactive

Ask: Name the outcome recorded for N#Cc1c(NN)nc(NN)c(C#N)c1-c1ccccc1 in the assay.
Result: inactive

Ask: Which outcome was entered for the molecule Cc1cc(NCCCCCCCCCC[n+]2c(C)cc(N)c3ccccc32)c2ccccc2n1 in this test?
Result: inactive

Ask: How did this test come out for O=C1C2SC34c5c2c2ccccc2n5CCC3CCCN14 (configuration not stated) ?
Result: inactive

Ask: I would be grateful if you could indicate the recorded call for COC(=O)C1=C([C@H]2COC(C)(C)O2)[C@H]2C[C@@H]1[C@@H]1OC(C)(C)O[C@@H]12 .
Result: inactive

Ask: Which outcome was assigned to O=C(O)OC12CCCCCC1C(=O)C1CCCCC12 (configuration not stated) in this test?
Result: inactive

Ask: Dear all, I need the recorded test outcome for O=C1OC(C2Cc3ccc4c(c3C2=O)CCC4)c2ccccc21 (configuration not stated) , thank you.
Result: inactive

Ask: I'd appreciate the recorded outcome for COC1(OC)CCN(Cc2ccccc2)C1=O from this test.
Result: inactive

Ask: State the result this test recorded for CC1CCC(C(=O)O)(C(Br)C(=O)O)CC1 (configuration not stated) .
Result: inactive

Ask: Dear all, I need the recorded test outcome for CC(CC(C)(C)[N+](C)(C)C)[N+](C)(C)C (configuration not stated) , thank you.
Result: inactive

Ask: Which result was noted for this molecule in the test: O=C(O)CNC(=O)c1ccc(-c2ccccc2)cc1
Result: inactive

Ask: GET /call?item= C=C1C(=O)O[C@@H]2/C=C(\C)CC/C=C(\C)CC[C@@]12O returns the recorded outcome of this test.
Result: active

Ask: How did this test come out for Cc1c(C)c(S(=O)(=O)N(CCCCCN)OCCCN)c(C)c2c1OC(C)(C)CC2 ?
Result: inactive

Ask: Recorded call for O=NN(CCCl)C(=O)Nc1ccc(Cl)c(Cl)c1 ?
Result: inactive

Ask: Record lookup: outcome of this test for CN(C)c1cccc(-c2cc(=S)c3cc4c(cc3[nH]2)OCO4)c1 ?
Result: inactive

Ask: Returns: the outcome recorded for COc1ccc(/C(Cl)=C(\C=O)c2cc(OC)c(OC)c(OC)c2)cc1OC in this assay.
Result: inactive

Ask: Entry COc1cccc2c1[C@H]1CO[C@H]3C4C[C@H](C(=O)O)C([C@@H](C2)N13)N4C (some centres not stated) : call = ?
Result: inactive

Ask: What call does the record list for COC(=O)[C@@H]1C=C[C@H](OC2OC(COC(C)=O)C(OC(C)=O)C(OC(C)=O)C2OC(C)=O)n2c(=O)c3ccccc3c(=O)n21 (some centres not stated) ?
Result: inactive

Ask: Entry CN1C(=O)C2(c3ccccc31)C1CC3C(CO1)C1C2C3(CO)CN1C#N (configuration not stated) : call = ?
Result: inactive

Ask: Short answer needed: outcome of this test for O=c1c(SSc2coc3cc(F)ccc3c2=O)coc2cc(F)ccc12 ?
Result: inactive

Ask: Dear colleague, could you share the recorded outcome for CN(C)c1nc(N)nc(CCl)n1 when you have a moment?
Result: inactive

Ask: Identify the outcome logged in this assay for the molecule shown: CCOC(=O)c1nc2ccc(C(F)(F)F)cc2nc1Nc1ccc(OC)cc1
Result: inactive

Ask: What classification did C=C(C)C(=O)OC1C[C@H](COC(C)=O)C2CC=C(C)C2C2OC(=O)C(=C)[C@H]12 (some centres not stated) end up with in this test?
Result: inactive

Values compiled from ChEMBL document CHEMBL1201862.
